// reported binding signal (PBM E-score (-0.5 to 0.5)) per item
# studySystem: Zap1 (Saccharomyces cerevisiae)
# Sequence: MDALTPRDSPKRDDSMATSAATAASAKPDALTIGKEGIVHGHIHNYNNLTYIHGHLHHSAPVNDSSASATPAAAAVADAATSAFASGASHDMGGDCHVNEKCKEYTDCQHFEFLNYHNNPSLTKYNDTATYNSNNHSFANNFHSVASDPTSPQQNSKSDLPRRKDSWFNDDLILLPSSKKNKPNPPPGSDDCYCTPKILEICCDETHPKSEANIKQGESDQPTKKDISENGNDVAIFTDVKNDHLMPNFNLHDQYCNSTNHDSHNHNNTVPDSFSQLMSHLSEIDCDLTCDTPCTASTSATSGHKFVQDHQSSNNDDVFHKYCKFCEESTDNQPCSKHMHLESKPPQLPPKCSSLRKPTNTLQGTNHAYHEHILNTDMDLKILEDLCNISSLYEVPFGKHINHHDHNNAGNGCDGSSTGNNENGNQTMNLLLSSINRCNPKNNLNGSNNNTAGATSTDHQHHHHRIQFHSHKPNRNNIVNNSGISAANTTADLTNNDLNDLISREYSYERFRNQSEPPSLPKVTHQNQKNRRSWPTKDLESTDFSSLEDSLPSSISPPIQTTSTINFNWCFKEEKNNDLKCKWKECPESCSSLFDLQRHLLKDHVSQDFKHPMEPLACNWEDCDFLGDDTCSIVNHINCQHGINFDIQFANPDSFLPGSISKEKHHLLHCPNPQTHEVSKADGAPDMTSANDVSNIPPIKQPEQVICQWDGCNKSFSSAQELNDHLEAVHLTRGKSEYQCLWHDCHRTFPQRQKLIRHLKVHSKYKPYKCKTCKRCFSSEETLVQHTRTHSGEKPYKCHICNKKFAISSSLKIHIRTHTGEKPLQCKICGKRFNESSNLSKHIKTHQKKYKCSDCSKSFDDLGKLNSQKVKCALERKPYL
# particulars: 200 nM
// response body must contain only the number

{"columns": ["itemSequence", "recordedResult"],
 "data": [
  ["AAGGTTAT (double strand) [8-mer AAGGTTAT]", 0.478],
  ["CCATAACC (double strand) [8-mer CCATAACC]", 0.479],
  ["AGGGTTAC (double strand) [8-mer AGGGTTAC]", 0.484],
  ["CAGGGTTA (double strand) [8-mer CAGGGTTA]", 0.477],
  ["ATAACCTC (double strand) [8-mer ATAACCTC]", 0.487]
]}

Lab note: next sequence to report on.
The sequence identified as ATAACCCC (double strand) [8-mer ATAACCCC] registered its binding signal (PBM E-score (-0.5 to 0.5)) at 0.476
